# assaySystem: DRB10404 (DR4w14) (Homo sapiens, UniProt P01903+P01911, A100R/A169T/F76Y/I96L/K127E/L162R/M171V/N62H/P40V/Q125Y/R42H/S133A/S149N/S66Y/V209L/W38E)
# Construct: used as sources of human HLA class II molecules; endogenous in cells; host or cells: BIN40 (EBV-transformed homozygous B cell line)
# test: Class II peptide-binding assay, DR4w14;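 also: unlabeled peptides compete with a radiolabeled probe for binding to affinity-purified HLA-DR, neutral pH, class II amount titrated to bind a small fraction of label, IC50 approximates Kd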
# assayConditions: read-out: DR4w14 nM (In IC50 Format); purified HLA DR4w14
Ends that are not written are not given here.
Listed here are substances together with their documented pIC50.
Scale for pIC50: -log10 of concentration given in mol/L; no unit attached.

Before answering, review these 5 worked examples.
YARFNSQTTLKAKT-NH2 [Peptide 717.44]; 8.13
LSGSHLVEALYLVSGERGFF [Peptide 734.02]; 5.99
YARFQFQTTLKAKT-NH2 [Peptide 717.46]; 8.59
YARFQSNTTLKAKT-NH2 [Peptide 717.47]; 7.83
YARFQSQTTLKAAT-NH2 [Peptide 717.49]; 8.15

Give a short answer stating reported pIC50 for YAEFQAEKTLKAAS-NH2 [Peptide 717.05] .
7.53

Give the measured pIC50 for YARFQSQTTKKAKT-NH2 [Peptide 717.20]
6.70
